# assay.method.text: yeast display, Sf9 membrane polyspecificity reagent, FACS + sequencing; frameworks hold sequencing errors
attribute.measured: polyreactivity (PSR sort gate)

Worked set:
QVQLVESGGGLVQAGGSLRLSCAASGRTFGIYAMGWYRQAPGKERELVAAITGRGGSTHYADSVKGRFSISRDNAKNTVYLQMNSLKPEDTAVYYCAADYRYNRGITSNKDYDYWGQGTQVTVSS    low polyreactivity
QVQLVESGGGLVQAGGSLRLSCAASGITFDYYGMGWYRQAPGKERELFASITSGGSTNYADSVKGRFTISRDNAKNTVYLQMNSLKPEDTAVYYCNAEFWEVSPDPRDYDYWGQGTQVTVSS    low polyreactivity
QVQLVESGGGLVQAGGSRRLSCAASGSIFTSNAMGWYRQAPGNERDLVAVITGSTGRTHYADSVKGRFTISRDNAMNTVYLQMNSLKPEDTAVYYFSAGLTFVTNFDYWGQGTHVTVSS    low polyreactivity
QVQLVESGGGLVQAGGSLRLSCAASGYIFTIYAMGWYRQAPGKERELVAAITWSGATTYYADSVKGRFTISRDNAKNTVYLQMNSLKPEDTAVYYCNADYWHYYEDYDSWGQGTQVTVSS    low polyreactivity
QVQHEDSGGGLVQAGGSLRLSCAASGRIFSFYTMGWYRQAPGKERELVAAISGSGGSTYYADSVKGRFTISRDNAKNTVYLQMNSLKPEDTAVYYCARRRQRGGVNYWGQGTQVTVSS    high polyreactivity

Q. Data request, read-out polyreactivity (PSR sort gate), for "QVQLVESGGGLVQAGGSLRLSCADSGSIFQRYAVGWYRQAPGKEREVVAAFTASGGSTYYADSVKGRFTISRDNAKNTVYLQMNILKPEDTAVYYCATDSYWRQDLYRYEYWGQGTQVTVSS"
A. high polyreactivity

Q. Fill in the blank: the reported polyreactivity (PSR sort gate) of "QVQLVESRGGLVQAGGSLRLSFAASGSNFGAYAMVWYRQAPGKERELVAGITGSGGTTYYADSVKGRFTISRDNGKNTVYLQMNSLTPEDTAVYDCAKRVWVRYYYWGQGTQVTVSS" is ____.
A. high polyreactivity

Q. Recorded polyreactivity (PSR sort gate) of "QVQLVESGGGLVQAGGSLRLSCAAYGFILDFYTMGWYRQAPGKERELVAAITNGGSTYYADSVKGRFTISRDNAKNTVYLQMNSLKPEDTAVYYCAAYYRSRHNGYDSWGQGTQVTVSS" , please.
A. low polyreactivity

----------
# assay.method.text: yeast display, Sf9 membrane polyspecificity reagent, FACS + sequencing; frameworks hold sequencing errors
attribute.measured: polyreactivity (PSR sort gate)

QVQLVESGGGLVQAGGSLRLSCAASGRIFEHYAMGWYRQAPGKERELVATISSGGSTYYADSVKGRFTISRDNAKNTVYLQMNSLKPEDTAVYYCAAERFWPYKSYYWGQGTQVTVSS    low polyreactivity
QVQLVESGGGLVQAGGSLRLSCAASVFTCAVYVMGWYRQAPGKERELVANISFSVGSTYYADSVKGRFTISRDYAKNTVYLQMNSLKPEDTAVYYCNADPPPEYYPDKDNYWGQGTQVTVSS    low polyreactivity
QVQLVESGGGLVQAGGSLRLSCAASGGIFGGNAMGWYRQAPGQERELVAAISRSSGSTYYADSVKGRFTISRDNAKNTVYLQMNSLKPEDSAVYYCNVEGYGRRFDYWGQGTQVTVSS    high polyreactivity
QVQLVESGGGLVQAGGSLRLSSAASGSTFWNNVMGSYRQATGKERELVAAITYSGGITYADSVKGRFTISRDNAKNTVYLEMNSLKPEDTAVYYCAADSKYKYDSWGQGTQVTVSS    low polyreactivity
QVQLVESGGGLVQAGGSLRLSCAASGFTFYPYTMGWYRQAPGKERELVAAISSSGGSTYYADSVKGRFTISRDNAKNTVYLQMNSLKPEDTAVYYCNKYQRNWFSRAPMDYWGQGTQVTVSS    high polyreactivity

Q. I would be grateful if you could share the reported polyreactivity (PSR sort gate) for "QVQLVESGGGLVQAGGSLRLSCAASGRTFKRYAMGWYRQAPGKERELVATISGNGGRTYYADSVKGRFTISRDNAKNTVYLQMNSLKPEDTAVYYCAALLYIRSVGYDYWGQGTQVTVSS" .
A. low polyreactivity

Q. For the sequence "QVQLVESGGGLVQAGGSLRLSCAASGSIFFTNVMGWYRQAPGKEREFVAAITGGGGSTYYADSVKGRFTISRDNAKNTVYLQMNSLKPEDTAVYYCATKAKPRSGYNYWGQGTQVTVSS" , what polyreactivity (PSR sort gate) is on record?
A. low polyreactivity

----------
# assay.method.text: yeast display, Sf9 membrane polyspecificity reagent, FACS + sequencing; frameworks hold sequencing errors
attribute.measured: polyreactivity (PSR sort gate)

Consider the worked cases shown below.
QVQLVESGGGLVHAGGSLRVSCAASGSISDSYAMGWYREAPGKERELVAAITSGDSTYYADSVKGRFTISLDNAKNTVYLQMNSVKPEDTAVYYSAKRVSRVRGYGFTDWSEYDYWGQGTQVTVSS    low polyreactivity
QVQLVESGGGLVQAGGSLRLSCAASGRIFGHYAMGWYIQAPGKERELVAAISRGGSTNYADSVKGRFTISRDNAKNTVYLQINSLKPVDNAVYYCNAAYSDYEYDYWGQGTQVSVSS    low polyreactivity
QVHLQESGGGLVQAGGSLRLSCAASRTIFRISDMGSYRQAPGKEREFVAAITYGANTYYADSGKGRFTISRDNAKNSVYLQMNSLKADDTAVYYCAVPPVKETILDYWGQGTQVNVSS    low polyreactivity
QVQLVESGGGLVQAGGSLRLSCAASGRTFIPYAMGWYRQAPGKERELVAAITSSGGRTYYADSVKGRFTISRDNAKNTVYLQMNSLKPEDTAVYYCNKYARGYDMDYWGQGTQVTVSS    high polyreactivity
QVQLVESGGGLVQAGGSLRLSCAASGSNFDTYAMGRYRQAPGKERELVAAITRRAGSTYYADSVKGRFRISRDNAKNTVYLQMNSLKPEDTSVYYCAADFRYPDIYGGYDYWGQGTQVTVSS    low polyreactivity
QVQLVESGGGLVQAGGSLRLSCAASGSILFYAMGWYRQAHGKERELVAAITWRGGSTFYADSVKGRFTISRDNAKNTVYLQMNSLKPDDTAVYYCAASYYRYGHRSRGRYYYWGQGTQVTVSS    high polyreactivity
QVQLQESGGGLVQASGSLRLSCAASGNIFPDYVMGWYRLAPGKEREFVANITGGSTTNYADSVKGRFTISRDNAKNTVYLQMNSLKPEDTAVYYCAVNFGTVVLYLYWGQGTQVTVSS    high polyreactivity
QVQLVESGGGLVQAGGSLRLSCAASGIISGDYAMAWYRQAHGKERELVARITSGDSTNYADSVKGRFTISRDNAKNTVYLQMNSLKPEDTAVYYCAADRVWAYWTYGYWGQGTQVTVSS    low polyreactivity
QVQLVESGGGLVQAGGSLRLSCAASGRIFRYNAMGWYRQAPGKERELVADISKRGGSTYYADSVKGRFTISRDNAKNTVYLQMNSLKPEDTAVYYCNARNTYYVVANDYWGQGTQVTVSS    high polyreactivity
QVQLVESGGGLVQAGGSLRLSCAASGSIFWVYAMGWYRQAPGKERELVAAISNRGGSTYYSDSVKGRFTISRDNAKITVYLQMNSLKPEDTAVYYCAAVVAHHYYWGQGTQVTVSS    high polyreactivity

Q. Any idea what polyreactivity (PSR sort gate) was measured for "QDHLVESGGGLVQAGGSLRVSCAASGLVYGQYAMGWYRPAPGKERELVAAINWSGGRTYYADSVKGRFTISRDNAKNTVYLQMNSLKPEDTAVYYCAADDPQDQDYENNYWGQGTQVNVSS" ?
A. high polyreactivity

----------
# assay.method.text: yeast display, Sf9 membrane polyspecificity reagent, FACS + sequencing; frameworks hold sequencing errors
attribute.measured: polyreactivity (PSR sort gate)

Consider the worked cases shown below.
QVQLVESGGGLVQAGGSLRLSCAASGSIFYRYAMGWYRQAPGKERELVAAISSTGSTYYADSVKGRFTISRDNAKNTVYLQMNSLKPEDTAVYYCAARQGYRSYRRYDYWGQGTQVTVSS    high polyreactivity
QVQLVESGGGLVQAGGSLRLSCAASGRILYSYAMGWYRQAPGKEREFVAAISRSGARTYYADYVKGRFTISRDNAKNTVYLQMNSLKPEDTAVYYCAADDFSTVEYDYWGQGTQVTVSS    low polyreactivity
QVQLVESRGGIVQAGGSLRLTCAASGRTFRSKVMGWYRQAQGKERELVADITYSGGNTYYADSVKGRFTISRDNAKNTDYLQMNSLKPEDNAVYYCATGWSWWTFDYWGQGTQVTVSS    high polyreactivity
QVKLVESAAGLVQAGGSLRLSCDASGFTFALYANGLYIQAPRKERELVAVITYCGGRTYYADSVKGRFTISRVNAKNTVYLLMYSLKPEDTAVYYCNARYRQKGLYGTAFDYWGQGTQVTVSS    high polyreactivity

We now examine a further sequence.
Q. # polyreactivity (PSR sort gate) lookup, item "QVQLVESGGGLVQAGGSLRLSCADSGRIFDLNAMGWYRQAPGKERELVAAITWSGDSTYYADSVKGRFTISRDNAKNTVYLQMNSLKPEDTAVYYCAAASRTSYSWVDYEFDYWGQGTQVTVSS"
A. low polyreactivity
